# target-of-assay: T1, His6-PP1α_(7-330) (UniProt P62136 7-330)
# T1 construct: Protein Phosphatase 1 alpha (PP1α), residues 7-330; Captured by its His6 tag on the Ni-NTA chip for SPR; Two Mn2+ at the active site when made in E. coli with MnCl2; also called PP1_(7-330); Protein Phosphatase 1; source: bacterial expression (E. coli) as previously described, purified (Ni-NTA, SEC)
# T1 sequence (P62136 7-330): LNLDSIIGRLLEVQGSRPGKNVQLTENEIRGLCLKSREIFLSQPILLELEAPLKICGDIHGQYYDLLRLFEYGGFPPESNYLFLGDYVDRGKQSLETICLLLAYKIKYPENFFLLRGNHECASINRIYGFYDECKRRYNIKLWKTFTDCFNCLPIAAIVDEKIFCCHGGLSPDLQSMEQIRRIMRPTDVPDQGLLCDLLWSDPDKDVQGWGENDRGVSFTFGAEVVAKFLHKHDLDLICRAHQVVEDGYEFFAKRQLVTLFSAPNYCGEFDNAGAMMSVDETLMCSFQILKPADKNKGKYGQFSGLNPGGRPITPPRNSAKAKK
# assay-comment: SPR; His6-PP1 captured on a Ni-NTA sensorchip (NiHC200M), I3 variants injected; 25 °C; 20 mM Tris pH 8.0, 500 mM NaCl, 1 mM MnCl2, 0.5 mM TCEP, 0.05% Tween-20; one-to-one one state or one-to-one two state model
# assay-conditions: both partners purified
Please go through the items and note down their pKd.
Note: pKd values are expressed as the negative base-10 logarithm of concentration in M.

Return value of pKd for input SLTIKLRKRKPEKKVEWTSDTVDNEHMGRRSSKCSCIYEKPR (domain or fragment, human, UniProt O60927 27-68, looked up, PPP1R11), human, residues 27-68; source: E. coli BL21 (DE3), purified (Ni-NTA, TEV, heat 95 °C, SEC); not shown: His6, N-terminal, cleaved; MBP, N-terminal, cleaved) [CSC: I3_(27-68) C61S] , no commentary.
7.73

Return value of pKd for input SLTIKLRKRKPEKKVEWTSDTVDNEHMGRRSSKSCSIYEKPR (domain or fragment, human, UniProt O60927 27-68, looked up, PPP1R11), human, residues 27-68; source: E. coli BL21 (DE3), purified (Ni-NTA, TEV, heat 95 °C, SEC); not shown: His6, N-terminal, cleaved; MBP, N-terminal, cleaved) [SCS: I3_(27-68) C60S/C62S] , no commentary.
7.27

Return value of pKd for input SLTIKLRKRKPEKKVEWTSDTVDNEHMGRRSSKCSSIYEKPR (domain or fragment, human, UniProt O60927 27-68, looked up, PPP1R11), human, residues 27-68; source: E. coli BL21 (DE3), purified (Ni-NTA, TEV, heat 95 °C, SEC); not shown: His6, N-terminal, cleaved; MBP, N-terminal, cleaved) [CSS: I3_(27-68) C61S/C62S] , no commentary.
7.67

Return value of pKd for input SLTIKLRKRKPEKKVEWTSDTVDNEHMGRRSSKSSCIYEKPR (domain or fragment, human, UniProt O60927 27-68, looked up, PPP1R11), human, residues 27-68; source: E. coli BL21 (DE3), purified (Ni-NTA, TEV, heat 95 °C, SEC); not shown: His6, N-terminal, cleaved; MBP, N-terminal, cleaved) [SSC: I3_(27-68) C60S/C61S] , no commentary.
7.06
